Where do these numbers come from? They come from patent US8580794B2.

Target Desc: GST-Bc1-2 (Homo sapiens)
Sequence (P10415 whole entry): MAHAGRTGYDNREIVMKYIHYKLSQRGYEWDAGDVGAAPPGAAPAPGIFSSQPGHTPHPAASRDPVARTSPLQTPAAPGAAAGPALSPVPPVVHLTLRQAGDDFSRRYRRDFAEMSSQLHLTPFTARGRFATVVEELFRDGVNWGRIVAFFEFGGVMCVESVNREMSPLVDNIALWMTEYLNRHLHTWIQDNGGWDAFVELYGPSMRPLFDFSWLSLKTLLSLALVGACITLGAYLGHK
Assay Info: Time Resolved-Fluorescence Resonance Energy Transfer (TR-FRET) Bcl-2 binding assay with F-Bak peptide probe
Condition Description: GST-Bcl-2 1 nM, F-Bak probe 100 nM, Tb-anti-GST 1 nM; '<' = below limit of detection; read-out: TR-FRET Bcl-2 Binding Ki
Parameter Measured: Ki (pM)
One number for each entry, in pM.

Sample answers from the record:
- Compound: "CC1(C)CCC(CN2CCN(c3ccc(C(=O)NS(=O)(=O)c4ccc(NC(=O)N5CCC(N6CCOCC6)CC5)c(Cl)c4)c(Oc4cnc5[nH]ccc5c4)c3)CC2)=C(c2ccc(Cl)cc2)C1 [Example 398]"
  Parameter Measured: "Ki"
  Quantitative Readout: 149
- Compound: "CN1CCC(F)(COc2ccc(S(=O)(=O)NC(=O)c3ccc(N4CCN(CC5=C(c6ccc(Cl)cc6)CC(C)(C)CC5)CC4)cc3Oc3cnc4[nH]ccc4c3)cc2S(=O)(=O)C(F)(F)F)CC1 [Example 230]"
  Parameter Measured: "Ki"
  Quantitative Readout: 31
- Compound: "CC1(C)CCC(CN2CCN(c3ccc(C(=O)NS(=O)(=O)c4cnc(OCC5(F)CCOCC5)c(C#N)c4)c(Oc4cnc5[nH]ccc5c4)c3)CC2)=C(c2ccc(Cl)cc2)C1 [Example 56]"
  Parameter Measured: "Ki"
  Quantitative Readout: 37
- Compound: "CO[C@H]1CC[C@@H](COc2ncc(S(=O)(=O)NC(=O)c3ccc(N4CCN(CC5=C(c6ccc(Cl)cc6)CC(C)(C)CC5)CC4)cc3Oc3cnc4[nH]ccc4c3)cc2Cl)CC1 [Example 211]"
  Parameter Measured: "Ki"
  Quantitative Readout: 58
- Compound: "CC1(C)CCC(CN2CCN(c3ccc(C(=O)NS(=O)(=O)c4ccc(NC5CCN(C(CF)CF)CC5)c([N+](=O)[O-])c4)c(Oc4cnc5[nH]ccc5c4)c3)CC2)=C(c2ccc(Cl)cc2)C1 [Example 95]"
  Parameter Measured: "Ki"
  Quantitative Readout: 14

Each compound below has a recorded value; state its Ki.
1. CC1(C)CCC(CN2CCN(c3ccc(C(=O)NS(=O)(=O)c4cnc(OCC5CCOCC5)c(C#N)c4)c(Oc4cnc5[nH]ccc5c4)c3)CC2)=C(c2ccc(Cl)cc2)C1 [Example 36]
2. CC1(C)CCC(CN2CCN(c3ccc(C(=O)NS(=O)(=O)c4ccc(OCC5CN(C6CC6)CCO5)c([N+](=O)[O-])c4)c(Oc4cnc5[nH]ccc5c4)c3)CC2)=C(c2ccc(Cl)cc2)C1 (stereo not shown) [Example 354]
3. CC1(C)CCC(CN2CCN(c3ccc(C(=O)NS(=O)(=O)c4ccc(N[C@H]5CCN(CCF)C5)c([N+](=O)[O-])c4)c(Oc4cnc5[nH]ccc5c4)c3)CC2)=C(c2ccc(Cl)cc2)C1 [Example 181]

1: 17; 2: 10; 3: 17
